system: K-562 leukemia; assay: NCI tumour cell line growth inhibition, 48 h

{"columns": ["compound", "measured_target", "unit_text", "censor_symbol", "TGI"],
 "data": [
  ["Nc1nc(Cl)nc2c1ncn2C1OC(CO)C(O)C1O (stereo not given)", "K-562 leukemia", "µM", ">", 100],
  ["O=C1NC2OC(CO)C(O)C(O)C2O1 (stereo not given)", "K-562 leukemia", "µM", ">", 100],
  ["COc1cc(/C=C2\\CC3C4CCC5=CC(=O)CC[C@]5(C)C4CC[C@]3(C)C2=O)ccc1OCCN1CCCCC1 (stereo not given in full)", "K-562 leukemia", "µM", "=", 16.6],
  ["N/C(=N/N=C/c1cccc(F)c1)NO", "K-562 leukemia", "µM", ">", 100],
  ["C1C[S][Ge]2([S]CCS1)[S]CCSCC[S]2", "K-562 leukemia", "µM", ">", 100],
  ["COc1cc(C2c3cc4c(cc3OC(NNc3ccccc3)C2C)OCO4)cc(OC)c1O (stereo not given)", "K-562 leukemia", "µM", "=", 12.4],
  ["COc1cc([C@@H]2c3cc4c(cc3[C@@H](NC(=O)c3ccc(OC(C)=O)cc3)C3COC(=O)[C@@H]32)OCO4)cc(OC)c1O (stereo not given in full)", "K-562 leukemia", "µM", "=", 47.2],
  ["C=CCn1c(=O)c(C(=O)NC(=O)OCC)cn(C2CCCCC2)c1=O", "K-562 leukemia", "µM", ">", 100],
  ["O=C1c2ccccc2-c2ccccc2C1(Cl)Cl", "K-562 leukemia", "µM", "=", 5.46],
  ["Cc1cc(=O)[nH]c(NNC(C#N)c2ccc(N(C)C)cc2)n1 (stereo not given)", "K-562 leukemia", "µM", ">", 100]
]}

====

test system: RPMI-8226 leukemia; assay: NCI tumour cell line growth inhibition, 48 h; in the data active = GI50 below about 0.43 µM; inactive = the rest
Classes used: active, inactive

{"columns": ["compound", "class_name"],
 "data": [
  ["O=C(c1ccccc1)c1c2n(c3c1cc(O)c1ccccc13)CCN2", "inactive"],
  ["N/C(=N\\C(N)=N\\c1nc2ccccc2s1)c1ccnc(Br)c1", "inactive"],
  ["C=CCCCC(O)c1ccc(C(O)c2cnc3ccccc3c2)o1 (stereo unspecified)", "inactive"],
  ["COc1ccc(/C=C/C(=O)c2ccccc2)cc1OC", "inactive"],
  ["ClCc1ccc(-c2ccc(Cn3cnc4c(Cl)ncnc43)cc2)cc1", "inactive"],
  ["Clc1ccc(Nc2ncnc3c2sc2ncccc23)c(Cl)c1", "active"]
]}

====

# TGI annotations
system: SF-268 CNS; assay: NCI tumour cell line growth inhibition, 48 h

{"columns": ["compound", "TGI"],
 "data": [
  ["CN(CCCCN)c1ccc2c(=O)[nH][nH]c(=O)c2c1", "> 100 µM"],
  ["COc1ccc(N2C(=O)C(=O)C3(CCCCC3)C2=O)c(OC)c1OC", "> 100 µM"],
  ["CCOP(=O)(OCC)C(C)(CC)/N=C(\\N)NC#N (centres undefined)", "> 100 µM"],
  ["O=C(NCCC1CN(S(=O)(=O)C(F)(F)F)c2ccccc21)OCc1ccccc1 (centres undefined)", "> 100 µM"]
]}

====

system: HCC-2998 colon; test: NCI tumour cell line growth inhibition, 48 h
# TGI annotations

{"columns": ["molecule", "TGI"],
 "data": [
  ["O=C1C(c2c(O)[nH]c3ccc(I)cc23)=Nc2ccccc21", "> 22.9 µM"],
  ["C=C(C)[C@@H]1CC[C@]2(C(=O)N3CCN(C)CC3)CC[C@]3(C)[C@H](CC[C@@H]4[C@@]5(C)CC[C@H](O)C(C)(C)[C@@H]5CC[C@]43C)[C@@H]12", "3.59 µM"],
  ["Cc1sc2nc3n(c(=O)c2c1C)N=C(c1ccccc1)CS3", "> 100 µM"],
  ["COC(=O)C1Cc2c([nH]c3ccccc23)-c2[nH]c3ccccc3c2CC(NC(C)=O)C(=O)N2CCCC2C(=O)N1 (centres undefined)", "> 100 µM"],
  ["Cc1ccc(O)cc1 (tested in a mixture with another compound)", "> 100 µM"],
  ["COc1cc(CC2C(=O)OCC2[C@@H](OC(C)=O)c2ccc3c(c2)OCO3)c(Br)c(OC)c1OC (some centres undefined)", "> 100 µM"],
  ["O=c1sc(-c2nc3ccccc3[nH]2)c(/N=C/c2ccccc2)n1-c1ccccc1", "> 100 µM"],
  ["COc1ccc(N2C(=O)C3C=CC(n4[nH]c(=O)n(Cc5ccccc5)c4=O)CC3C2=O)cc1 (centres undefined)", "> 100 µM"],
  ["O=C(Nc1nc(-c2ccccc2Cl)cs1)c1cc(-c2ccc(Cl)cc2)nc2ccc(Cl)cc12", "> 100 µM"]
]}

====

test system: SK-MEL-5 melanoma; assay: NCI tumour cell line growth inhibition, 48 h

{"columns": ["molecule", "TGI"],
 "data": [
  ["CP(=O)(O)C(N)c1ccccc1 (stereo not drawn)", "> 100 µM"],
  ["CCSc1[nH]c(NC(=NC(C)C)NC(=O)c2ccccc2)c(C(N)=O)c1C(N)=O", "> 10 µM"],
  ["CCOC(=O)[C@H](CO)Nc1c(O)c2c(c(O)c1Cl)C(=O)C=CC2=O", "> 10 µM"],
  ["Cc1cc2nc3c4cc([N+](=O)[O-])ccc4n(CCN(C)C)c3nc2cc1C", "2.21 µM"],
  ["CCN(CC)CC(O)c1cc(-c2ccc(Cl)cc2)nc2cc(Cl)ccc12 (stereo not drawn)", "2.99 µM"],
  ["Cc1ccc(Cc2n[nH]c(=O)n2N2C(=O)c3ccccc3C2=O)cc1", "> 100 µM"],
  ["CC(C)(N)C(=O)N[C@@H]1C(=O)N2[C@@H]1SC(C)(C)[C@@H]2C(=O)O", "> 100 µM"],
  ["COc1cc(/C=C2\\CC3C4CCC5=CC(=O)CC[C@]5(C)C4CC[C@]3(C)C2=O)ccc1OCCN1CCCCC1 (stereo partly drawn)", "3.09 µM"],
  ["Cc1csc2c(=O)n(COCc3ccccc3)c(=O)[nH]c12", "> 100 µM"],
  ["O=C1C(=Cc2ccc([N+](=O)[O-])o2)C(=O)N(CCc2ccccc2)S(=O)(=O)N1CCc1ccccc1", "44.1 µM"],
  ["COc1cccc(/C=C2\\CCc3ccccc3C2=O)c1", "23 µM"],
  ["Cc1cc2nc(CC(C(F)(F)F)C(F)(F)F)oc2cc1C", "12.2 µM"],
  ["CC(=O)Oc1cc(OC(C)=O)c2c(c1)OC(c1ccc(OC(C)=O)c(OC(C)=O)c1)CC2=O (stereo not drawn)", "> 100 µM"],
  ["NCCN(CCN)/[N+]([O-])=N/O", "> 100 µM"],
  ["CCOC(=O)Nc1cc(-c2ccc(C)c(NS(C)(=O)=O)c2)nn2c(C)nnc12", "10.4 µM"],
  ["COc1cc(=O)oc(/C=C/CO)c1C", "> 100 µM"],
  ["N#Cc1c(O)c(C=O)c(=O)n2c1[nH]c1ccccc12", "> 100 µM"],
  ["CCCCc1c2c(nc3c1CCCC3=O)CCCC2", "> 100 µM"],
  ["N#CC(C#N)C1CN2CCC1CC2 (stereo not drawn)", "> 100 µM"],
  ["CCOC(=O)C1=C(O)c2ccc(OC)cc2C(=O)C1=O", "> 100 µM"],
  ["O=[N+]([O-])c1ccc2c(N=Nc3ccc4ccccc4c3O)c(O)cc(S(=O)(=O)O)c2c1", "53.6 µM"],
  ["CN1CCN(Cn2nc(-c3cc(F)c(Cl)cc3Cl)oc2=S)CC1", "33.7 µM"],
  ["COc1cc(C2c3cc4c(cc3OC(NNc3ccccc3)C2C)OCO4)cc(OC)c1O (stereo not drawn)", "3.68 µM"],
  ["Cc1ccnc(NC(c2ccccc2)c2ccc3cccnc3c2O)c1 (stereo not drawn)", "15.6 µM"],
  ["C=C1CCC2(C(C)=O)COC1(C)O2 (stereo not drawn)", "> 100 µM"],
  ["c1ccc(Sc2nc(Sc3ccccc3)nc(Sc3ccccc3)n2)cc1", "> 100 µM"],
  ["CCOP(=O)(OCC)C(C)(CC)/N=C(\\N)NC#N (stereo not drawn)", "> 100 µM"],
  ["O=[N+]([O-])c1cccc([I+]c2ccccc2)c1", "10.8 µM"],
  ["O=C(O)c1c[nH]c2c(ccc3[nH]cc(C(=O)O)c(=O)c32)c1=O", "> 100 µM"],
  ["CCOC(=O)[C@@]12NN=N[C@@H]1[C@H]1CO[C@H](c3ccccc3)N1C2=O", "24.5 µM"],
  ["CCCCCCn1c2c(c3c(O)cccc31)C(=O)c1ccccc1-2", "34.6 µM"],
  ["COC(=O)[C@@H](NC(=O)c1ccc(CNC(=O)/C(C)=C/c2ccccc2)cc1)C(C)C", "> 100 µM"],
  ["COC(=O)CC1NC(=O)C1C(C)(OC)OC (stereo not drawn)", "> 100 µM"],
  ["O=C(Nc1nc(-c2ccccc2Cl)cs1)c1cc(-c2ccc(Cl)cc2)nc2ccc(Cl)cc12", "9.07 µM"],
  ["Oc1[nH]c2ccccc2c1/C=c1/ccc2c(c1)N=C(c1cc(F)cc(F)c1)N=2", "19.1 µM"],
  ["O=C(CSc1nnc(-c2ccc(N=Cc3ccc(Cl)cc3)cc2)o1)Nc1cccc([N+](=O)[O-])c1", "> 100 µM"],
  ["O=C(NCCCl)NCc1ccccc1", "> 100 µM"],
  ["COc1cc(CC2C(=O)OCC2[C@@H](OC(C)=O)c2ccc3c(c2)OCO3)c(Br)c(OC)c1OC (stereo partly drawn)", "> 100 µM"],
  ["COc1cc2oc(-c3ccc(O)cc3)cc(=O)c2c(OC)c1O", "> 100 µM"],
  ["COc1ccc2c(c1)CC1N(C)CCC13CCCCC23 (stereo not drawn)", "> 100 µM"],
  ["COC(=O)c1cc2c(nc1C)-c1ccccc1OS2(=O)=O", "> 100 µM"],
  ["N/C(=N/N=C/c1cccc(F)c1)NO", "32.4 µM"],
  ["O=c1[nH]c(-c2ccc(Cl)cc2)cc2ccsc12", "> 100 µM"]
]}
